Here the recorded IC50 is given for each entry.
- Target Or System: COX-1 (Homo sapiens, UniProt P23219)
- Sequence (P23219 24-599): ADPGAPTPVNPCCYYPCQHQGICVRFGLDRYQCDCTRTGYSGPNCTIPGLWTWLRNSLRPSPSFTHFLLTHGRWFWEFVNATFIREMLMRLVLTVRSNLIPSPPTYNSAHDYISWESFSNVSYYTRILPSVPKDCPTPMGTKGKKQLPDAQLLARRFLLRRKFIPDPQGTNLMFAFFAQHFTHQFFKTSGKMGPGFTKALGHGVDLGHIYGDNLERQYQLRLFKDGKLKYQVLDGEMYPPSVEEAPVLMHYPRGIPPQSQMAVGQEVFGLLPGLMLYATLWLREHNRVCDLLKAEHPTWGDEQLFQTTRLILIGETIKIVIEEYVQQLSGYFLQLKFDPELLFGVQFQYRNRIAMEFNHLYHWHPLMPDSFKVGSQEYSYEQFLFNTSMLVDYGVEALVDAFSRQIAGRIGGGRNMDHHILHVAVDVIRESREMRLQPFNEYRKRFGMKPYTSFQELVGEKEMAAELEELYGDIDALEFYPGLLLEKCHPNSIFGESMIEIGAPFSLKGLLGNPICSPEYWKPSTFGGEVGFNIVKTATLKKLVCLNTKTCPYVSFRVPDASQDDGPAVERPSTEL
- Experiment Summary: Human whole blood assay, COX-1 (clotting-induced TxB2 production)
- Assay type: cell-based
- Set-up: platelets in whole blood contain a large amount of the COX-1 enzyme; from tissue; host or cells: fresh human whole blood (platelets), allowed to clot
- Condition Context: clotting-induced TxB2, 1 hour at 37° C, read-out: COX-1 (IC50 μM) HWB
API: value field is a number in µM; no unit string.

# Compound, Scale Unit, IC50
measured = [
    ("CS(=O)(=O)c1ccc(-c2cnn(Cc3ccccc3)c(=O)c2-c2cccnc2)cc1 [Example 28]", "µM", 56),
]

// next item, IC50 requested
Which value of IC50 has been reported for CS(=O)(=O)c1ccc(-c2cnn(Cc3ccccc3)c(=O)c2Oc2ccc(F)cc2)cc1 [Example 22] in the records? 9

* * *

- Target Or System: COX-2 (Homo sapiens)
- Sequence (P35354 18-604): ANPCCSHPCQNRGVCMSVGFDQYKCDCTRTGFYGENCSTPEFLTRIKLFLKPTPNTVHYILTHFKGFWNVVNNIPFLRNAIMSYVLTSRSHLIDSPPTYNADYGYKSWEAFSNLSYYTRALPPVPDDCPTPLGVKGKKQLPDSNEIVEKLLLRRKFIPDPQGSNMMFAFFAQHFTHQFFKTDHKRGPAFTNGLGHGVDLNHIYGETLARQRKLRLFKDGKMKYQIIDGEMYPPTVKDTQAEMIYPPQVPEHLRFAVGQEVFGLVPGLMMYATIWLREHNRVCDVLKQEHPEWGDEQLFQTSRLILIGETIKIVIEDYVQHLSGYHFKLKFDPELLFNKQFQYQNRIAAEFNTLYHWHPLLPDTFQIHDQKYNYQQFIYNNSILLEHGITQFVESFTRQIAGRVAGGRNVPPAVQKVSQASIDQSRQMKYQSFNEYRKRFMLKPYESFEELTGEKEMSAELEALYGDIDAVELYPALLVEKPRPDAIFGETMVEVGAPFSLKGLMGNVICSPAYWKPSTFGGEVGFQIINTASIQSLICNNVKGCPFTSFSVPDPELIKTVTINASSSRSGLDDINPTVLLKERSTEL
- Experiment Summary: Whole cell assay for COX-2 using CHO transfected cell line (CHO [hCOX-2]), PGE2
- Assay type: cell-based
- Set-up: expressed in transfected cells; host or cells: CHO (Chinese hamster ovary), stably transfected with pCDNAIII vector; CHO [hCOX-2]
- Condition Context: CHO [hCOX-2] cells, 10 μM AA
Mark MET only when IC50 stays strictly below 0.3 µM. Values equal to the cut-off are NOT MET.

For orientation, consider the following solved cases.
# Query Smiles, Assigned Label
data = [
    ("CS(=O)(=O)c1ccc(-c2cnn(CC3CCC3)c(=O)c2-c2ccc(F)cc2)cc1", "MET"),
    ("CC(C)(C)Cn1ncc(-c2ccc(S(C)(=O)=O)cc2)c(-c2ccc(F)cc2)c1=O", "MET"),
    ("COC(=O)c1ccc(Cn2ncc(-c3ccc(S(C)(=O)=O)cc3)c(-c3ccccc3)c2=O)cc1", "NOT MET"),
    ("CS(=O)(=O)c1ccc(-c2cnn(Cc3cccc(F)c3)c(=O)c2-c2ccccc2)cc1", "MET"),
    ("CS(=O)(=O)c1ccc(-c2cnn(-c3cccc(F)c3)c(=O)c2-c2ccccc2)cc1", "MET"),
    ("CS(=O)(=O)c1ccc(-c2cnn(Cc3ccncc3)c(=O)c2-c2ccc(F)cc2)cc1", "NOT MET"),
    ("CS(=O)(=O)c1ccc(-c2cnn(Cc3ccccc3)c(=O)c2Oc2ccc(Cl)cn2)cc1", "MET"),
]

Alright, here's another molecule for you.
Does the reported IC50 of CC(C)Cn1ncc(-c2ccc(S(C)(=O)=O)cc2)c(-c2ccc(F)cc2)c1=O stay below 0.3 µM? MET

* * *

- Target Or System: UniProt P23219
- Experiment Summary: Assay of COX-1 activity from U937 cell microsomes
- Type: biochemical
- Design: Assay of COX-1 Activity from U937 cell microsomes; endogenous in cells; host or cells: U937 cells, 100,000×g microsomal pellet
- Condition Context: PGE2, read-out: COX-1 (IC50 μM) U-937
As shown below, each of these compounds has a reported IC50 value.

Below: 5 compounds and their reported IC50.
# Compound, Target Or System, IC50
rows = [
    ("CS(=O)(=O)c1ccc(-c2cnn(CCCC(F)(F)F)c(=O)c2-c2ccc(F)cc2)cc1", "UniProt P23219", "> 10 µM"),
    ("CS(=O)(=O)c1ccc(-c2cnn(CCc3ccccc3)c(=O)c2-c2ccc(F)cc2)cc1", "UniProt P23219", "> 10 µM"),
    ("COC(=O)c1ccc(Cn2ncc(-c3ccc(S(C)(=O)=O)cc3)c(-c3ccccc3)c2=O)cc1", "UniProt P23219", "> 10 µM"),
    ("CS(=O)(=O)c1ccc(-c2cnn(-c3cccc(F)c3)c(=O)c2-c2ccccc2)cc1", "UniProt P23219", "> 10 µM"),
    ("CS(=O)(=O)c1ccc(-c2cnn(Cc3cccc(F)c3)c(=O)c2-c2ccccc2)cc1", "UniProt P23219", "> 10 µM"),
]

Can you look up the measured IC50 of CS(=O)(=O)c1ccc(-c2cnn(Cc3ccncc3)c(=O)c2-c2ccc(F)cc2)cc1 for me? > 10 µM

Also need CS(=O)(=O)c1ccc(-c2cnn(Cc3cccs3)c(=O)c2-c2ccc(F)cc2)cc1 , thanks. ~1 µM

Entry CS(=O)(=O)c1ccc(-c2cnn(Cc3ccccc3)c(=O)c2-c2cccnc2)cc1 please > 10 µM

* * *

- Target Or System: COX-1 (Homo sapiens, UniProt P23219)
- Experiment Summary: Assay of COX-1 activity from U937 cell microsomes
- Type: biochemical
- Design: Assay of COX-1 Activity from U937 cell microsomes; endogenous in cells; host or cells: U937 cells, 100,000×g microsomal pellet
- Condition Context: PGE2, read-out: COX-1 (IC50 μM) U-937
Listed here: items and their measured IC50.

# Compound, Result
measured = [
    ("CS(=O)(=O)c1ccc(-c2cnn(CC3CCC3)c(=O)c2-c2ccc(F)cc2)cc1", "~10 µM"),
    ("CS(=O)(=O)c1ccc(-c2cnn(Cc3ccccc3)c(=O)c2Oc2ccc(Cl)cn2)cc1", "3 to 10 µM"),
    ("CS(=O)(=O)c1ccc(-c2cnn(C3CC3)c(=O)c2-c2ccc(F)cc2)cc1", "~10 µM"),
    ("CS(=O)(=O)c1ccc(-c2cnn(Cc3ccccc3)c(=O)c2Oc2ccc(F)cc2)cc1", "0.3 to 1 µM"),
    ("CC(c1ccccc1)n1ncc(-c2ccc(S(C)(=O)=O)cc2)c(-c2ccc(F)cc2)c1=O (stereo not shown)", "~1 µM"),
    ("CS(=O)(=O)c1ccc(-c2cnn(CC3CCCCC3)c(=O)c2-c2ccc(F)cc2)cc1", "0.3 to 1 µM"),
]

Quick check: IC50 on COX-1 (Homo sapiens, UniProt P23219), item CS(=O)(=O)c1ccc(-c2cnn(CCC(F)(F)F)c(=O)c2-c2ccc(F)cc2)cc1 ? > 10 µM
